Experiment: mn = molality of the nth substance listed, in mol/kg
Conditions: 308.15 K; 100 kPa; Liquid; Vibrating tube method; m2 = 0
Consider the following compounds; for each one, report its mass density.
Answers are plain numbers, in kg/m3.

Provide reported mass density for each item, in the same order as listed.
1. C[S+](C)[O-] [dimethyl sulfoxide] + COc1cc(-c2cc(-c3ccccc3)[nH]c(=O)c2C#N)ccc1O
2. C[S+](C)[O-] [dimethyl sulfoxide] + COc1cc(-c2cc(-c3ccccc3O)[nH]c(=O)c2C#N)ccc1O
3. C[S+](C)[O-] [dimethyl sulfoxide] + COc1cc(-c2cc(-c3ccc(O)cc3)[nH]c(=O)c2C#N)ccc1O
4. C[S+](C)[O-] [dimethyl sulfoxide] + COc1cc(-c2cc(-c3ccc(Cl)cc3)[nH]c(=O)c2C#N)ccc1O

[1085.23, 1085.23, 1085.23, 1085.23]

----------
Consider the following compounds; for each one, report its mass density.
Experiment: mn = molality of the nth substance listed, in mol/kg
Conditions: 318.15 K; 100 kPa; Liquid; Vibrating tube method; m1 = 0.04
Numbers only, in kg/m3.

The following compounds have reported results that may help.
State the recorded mass density for this entry: COc1cc(-c2cc(-c3ccc(O)cc3)[nH]c(=O)c2C#N)ccc1O + C[S+](C)[O-] 1078.49

Same again, this time with COc1cc(-c2cc(-c3ccc(Cl)cc3)[nH]c(=O)c2C#N)ccc1O + C[S+](C)[O-] 1078.52

Same again, this time with COc1cc(-c2cc(-c3ccccc3O)[nH]c(=O)c2C#N)ccc1O + C[S+](C)[O-] 1078.47

Consider the additional compound presented here.
State the recorded mass density for this entry: COc1cc(-c2cc(-c3ccccc3)[nH]c(=O)c2C#N)ccc1O + C[S+](C)[O-] 1077.85

----------
Test: mn = molality of the nth substance listed, in mol/kg
Details: 308.15 K; 100 kPa; Liquid; Frequency=3 MHz; Sing-around technique in a fixed-path interferometer; m1 = 0.1
Consider the following compounds; for each one, report its speed of sound.
Numbers only, in m/s.

The following compounds have reported results that may help.
State the recorded speed of sound for this entry: COc1cc(-c2cc(-c3ccccc3O)[nH]c(=O)c2C#N)ccc1O + C[S+](C)[O-] 1457

Same again, this time with COc1cc(-c2cc(-c3ccc(O)cc3)[nH]c(=O)c2C#N)ccc1O + C[S+](C)[O-] 1457.4

Same again, this time with COc1cc(-c2cc(-c3ccccc3)[nH]c(=O)c2C#N)ccc1O + C[S+](C)[O-] 1456.8

Consider the additional compound presented here.
State the recorded speed of sound for this entry: COc1cc(-c2cc(-c3ccc(Cl)cc3)[nH]c(=O)c2C#N)ccc1O + C[S+](C)[O-] 1457.6

----------
Consider the following compounds; for each one, report its mass density.
Assay: mn = molality of the nth substance listed, in mol/kg
Details: 298.15 K; 100 kPa; Liquid; Vibrating tube method; m1 = 0.08
Numbers only, in kg/m3.

State the recorded mass density for this entry: COc1cc(-c2cc(-c3ccc(O)cc3)[nH]c(=O)c2C#N)ccc1O + C[S+](C)[O-] 1100.69

Same again, this time with COc1cc(-c2cc(-c3ccc(Cl)cc3)[nH]c(=O)c2C#N)ccc1O + C[S+](C)[O-] 1100.99

Same again, this time with COc1cc(-c2cc(-c3ccccc3)[nH]c(=O)c2C#N)ccc1O + C[S+](C)[O-] 1099.69

Consider the additional compound presented here.
State the recorded mass density for this entry: COc1cc(-c2cc(-c3ccccc3O)[nH]c(=O)c2C#N)ccc1O + C[S+](C)[O-] 1100.68

----------
Assay: mn = molality of the nth substance listed, in mol/kg
Details: 298.15 K; 100 kPa; Liquid; Capillary tube (Ostwald / Ubbelohde) method; m1 = 0.04
property: viscosity (mPa·s)
Numbers only, in mPa·s.

The following compounds have reported results that may help.
State the recorded viscosity for this entry: COc1cc(-c2cc(-c3ccccc3)[nH]c(=O)c2C#N)ccc1O + C[S+](C)[O-] 1.976

Same again, this time with COc1cc(-c2cc(-c3ccc(O)cc3)[nH]c(=O)c2C#N)ccc1O + C[S+](C)[O-] 2.06

Same again, this time with COc1cc(-c2cc(-c3ccc(Cl)cc3)[nH]c(=O)c2C#N)ccc1O + C[S+](C)[O-] 2.037

Consider the additional compound presented here.
State the recorded viscosity for this entry: COc1cc(-c2cc(-c3ccccc3O)[nH]c(=O)c2C#N)ccc1O + C[S+](C)[O-] 2.037

----------
Experiment: mn = molality of the nth substance listed, in mol/kg
Conditions: 318.15 K; 100 kPa; Liquid; Capillary tube (Ostwald / Ubbelohde) method; m1 = 0.1
± gives the expanded uncertainty stated by the source.
Consider the following molecules; for each one, report its viscosity.

The following molecules have reported results that may help.
State the recorded viscosity for this entry: COc1cc(-c2cc(-c3ccccc3O)[nH]c(=O)c2C#N)ccc1O + C[S+](C)[O-] 1.458 ± 0.26 mPa·s

Same again, this time with COc1cc(-c2cc(-c3ccc(O)cc3)[nH]c(=O)c2C#N)ccc1O + C[S+](C)[O-] 1.462 ± 0.27 mPa·s

Same again, this time with COc1cc(-c2cc(-c3ccc(Cl)cc3)[nH]c(=O)c2C#N)ccc1O + C[S+](C)[O-] 1.427 ± 0.26 mPa·s

Consider the additional molecule presented here.
State the recorded viscosity for this entry: COc1cc(-c2cc(-c3ccccc3)[nH]c(=O)c2C#N)ccc1O + C[S+](C)[O-] 1.41 ± 0.26 mPa·s

----------
Assay: mn = molality of the nth substance listed, in mol/kg
Conditions: 308.15 K; 100 kPa; Liquid; Capillary tube (Ostwald / Ubbelohde) method; m1 = 0.06
Consider the following compounds; for each one, report its viscosity.
Give bare numbers, in mPa·s.

The following compounds have reported results that may help.
State the recorded viscosity for this entry: COc1cc(-c2cc(-c3ccccc3)[nH]c(=O)c2C#N)ccc1O + C[S+](C)[O-] 1.638

Same again, this time with COc1cc(-c2cc(-c3ccccc3O)[nH]c(=O)c2C#N)ccc1O + C[S+](C)[O-] 1.645

Same again, this time with COc1cc(-c2cc(-c3ccc(O)cc3)[nH]c(=O)c2C#N)ccc1O + C[S+](C)[O-] 1.663

Consider the additional compound presented here.
State the recorded viscosity for this entry: COc1cc(-c2cc(-c3ccc(Cl)cc3)[nH]c(=O)c2C#N)ccc1O + C[S+](C)[O-] 1.655

----------
Test: mn = molality of the nth substance listed, in mol/kg
Conditions: 298.15 K; 100 kPa; Liquid; Frequency=3 MHz; Sing-around technique in a fixed-path interferometer; m1 = 0.01
Consider the following compounds; for each one, report its speed of sound.
Answers are plain numbers, in m/s.

State the recorded speed of sound for this entry: COc1cc(-c2cc(-c3ccccc3)[nH]c(=O)c2C#N)ccc1O + C[S+](C)[O-] 1485.9

Same again, this time with COc1cc(-c2cc(-c3ccccc3O)[nH]c(=O)c2C#N)ccc1O + C[S+](C)[O-] 1486

Same again, this time with COc1cc(-c2cc(-c3ccc(O)cc3)[nH]c(=O)c2C#N)ccc1O + C[S+](C)[O-] 1486.3

Consider the additional compound presented here.
State the recorded speed of sound for this entry: COc1cc(-c2cc(-c3ccc(Cl)cc3)[nH]c(=O)c2C#N)ccc1O + C[S+](C)[O-] 1486.1

----------
Assay: mn = molality of the nth substance listed, in mol/kg
Settings: 318.15 K; 100 kPa; Liquid; Frequency=3 MHz; Sing-around technique in a fixed-path interferometer; m1 = 0.04
Consider the following molecules; for each one, report its speed of sound.
One number for each entry, in m/s.

Provide reported speed of sound for each item, in the same order as listed.
1. COc1cc(-c2cc(-c3ccc(Cl)cc3)[nH]c(=O)c2C#N)ccc1O + C[S+](C)[O-]
2. COc1cc(-c2cc(-c3ccc(O)cc3)[nH]c(=O)c2C#N)ccc1O + C[S+](C)[O-]
3. COc1cc(-c2cc(-c3ccccc3)[nH]c(=O)c2C#N)ccc1O + C[S+](C)[O-]
4. COc1cc(-c2cc(-c3ccccc3O)[nH]c(=O)c2C#N)ccc1O + C[S+](C)[O-]

1421
1421.5
1420.5
1420.8

----------
Consider the following compounds; for each one, report its speed of sound.
Experiment: mn = molality of the nth substance listed, in mol/kg
Settings: 298.15 K; 100 kPa; Liquid; Frequency=3 MHz; Sing-around technique in a fixed-path interferometer; m1 = 0.1
Numbers after ± are expanded uncertainties.

The following compounds have reported results that may help.
State the recorded speed of sound for this entry: COc1cc(-c2cc(-c3ccc(Cl)cc3)[nH]c(=O)c2C#N)ccc1O + C[S+](C)[O-] 1491.1 ± 1.3 m/s

Same again, this time with COc1cc(-c2cc(-c3ccccc3)[nH]c(=O)c2C#N)ccc1O + C[S+](C)[O-] 1491 ± 1.3 m/s

Same again, this time with COc1cc(-c2cc(-c3ccc(O)cc3)[nH]c(=O)c2C#N)ccc1O + C[S+](C)[O-] 1493.7 ± 1.3 m/s

---
State the recorded speed of sound for this entry: COc1cc(-c2cc(-c3ccccc3O)[nH]c(=O)c2C#N)ccc1O + C[S+](C)[O-] 1493.5 ± 1.3 m/s

All values here come from the NIST ThermoML archive (doi:10.1021/acs.jced.5b00627).
